In this section we review reported OD450 values for a set of binders.
Biological target: T1, human CD22-ECD-His protein (human, UniProt P20273 20-687)
T1 construct: Made in house in HEK293E; also called hCD22-ECD-His; recombinant human CD22-ECD His protein; not shown: His tag
T1 sequence: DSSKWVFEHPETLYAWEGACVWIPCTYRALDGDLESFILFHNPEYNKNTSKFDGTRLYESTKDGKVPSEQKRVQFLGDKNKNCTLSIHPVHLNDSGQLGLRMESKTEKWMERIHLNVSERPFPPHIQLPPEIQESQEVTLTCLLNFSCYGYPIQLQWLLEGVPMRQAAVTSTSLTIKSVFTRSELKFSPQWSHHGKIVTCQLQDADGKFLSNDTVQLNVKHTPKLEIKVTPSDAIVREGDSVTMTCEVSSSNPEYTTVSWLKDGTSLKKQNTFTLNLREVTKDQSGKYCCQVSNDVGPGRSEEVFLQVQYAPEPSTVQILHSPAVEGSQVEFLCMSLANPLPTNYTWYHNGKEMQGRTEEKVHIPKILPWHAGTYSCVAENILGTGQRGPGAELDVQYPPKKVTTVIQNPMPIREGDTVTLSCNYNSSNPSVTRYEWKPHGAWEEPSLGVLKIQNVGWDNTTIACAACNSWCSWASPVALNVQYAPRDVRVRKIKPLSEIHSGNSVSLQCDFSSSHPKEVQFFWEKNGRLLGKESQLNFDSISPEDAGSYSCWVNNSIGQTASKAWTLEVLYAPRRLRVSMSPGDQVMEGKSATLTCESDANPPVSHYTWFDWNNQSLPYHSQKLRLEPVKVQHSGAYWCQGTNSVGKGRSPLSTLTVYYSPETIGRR
Test: ELISA, Ab 0.001 nM

binder="F2.151.13 (antibody, human IgG1, lambda, V domains shown, Human-murine chimeric IgG1, lambda) VH: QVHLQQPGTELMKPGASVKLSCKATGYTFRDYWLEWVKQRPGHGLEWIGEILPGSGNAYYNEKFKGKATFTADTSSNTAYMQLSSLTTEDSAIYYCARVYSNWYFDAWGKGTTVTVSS VL: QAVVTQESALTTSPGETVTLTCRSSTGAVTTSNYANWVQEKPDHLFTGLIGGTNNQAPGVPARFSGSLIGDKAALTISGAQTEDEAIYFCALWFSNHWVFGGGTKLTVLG" parameter_measured=OD450 measured_value="0.64 OD450"
binder="F1.224.1 (antibody, human IgG1, kappa, V domains shown, Human-murine chimeric IgG1, kappa) VH: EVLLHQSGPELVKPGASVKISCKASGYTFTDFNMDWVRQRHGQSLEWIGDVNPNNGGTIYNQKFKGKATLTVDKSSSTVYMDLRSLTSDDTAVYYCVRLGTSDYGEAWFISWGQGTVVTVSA VL: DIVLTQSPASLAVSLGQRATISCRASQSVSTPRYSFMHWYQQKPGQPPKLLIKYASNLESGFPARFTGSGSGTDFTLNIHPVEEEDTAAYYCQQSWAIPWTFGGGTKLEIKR" parameter_measured=OD450 measured_value="1.08 OD450"
binder="F2.173.9 (antibody, human IgG1, lambda, V domains shown, Human-murine chimeric IgG1, lambda) VH: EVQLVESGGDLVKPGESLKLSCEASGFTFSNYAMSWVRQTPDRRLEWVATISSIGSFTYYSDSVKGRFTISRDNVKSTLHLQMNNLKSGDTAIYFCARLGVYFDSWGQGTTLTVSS VL: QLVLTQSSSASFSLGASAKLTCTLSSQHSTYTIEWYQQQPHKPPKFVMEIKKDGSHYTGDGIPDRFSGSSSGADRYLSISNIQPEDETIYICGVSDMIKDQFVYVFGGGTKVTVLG" parameter_measured=OD450 measured_value="0.65 OD450"

Ask: So what's the measured OD450 for this one? F2.180.16 (antibody, human IgG1, lambda, V domains shown, Human-murine chimeric IgG1, lambda) VH: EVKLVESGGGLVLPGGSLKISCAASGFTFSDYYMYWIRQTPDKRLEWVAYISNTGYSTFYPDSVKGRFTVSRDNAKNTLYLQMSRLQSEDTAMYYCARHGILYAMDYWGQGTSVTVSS VL: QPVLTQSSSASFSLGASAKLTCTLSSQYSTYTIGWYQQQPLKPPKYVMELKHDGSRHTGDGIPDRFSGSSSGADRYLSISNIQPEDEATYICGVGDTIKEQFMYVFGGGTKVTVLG
Result: 0.61 OD450

Ask: So what's the measured OD450 for this one? F1.245.2 (antibody, human IgG1, kappa, V domains shown, Human-murine chimeric IgG1, kappa) VH: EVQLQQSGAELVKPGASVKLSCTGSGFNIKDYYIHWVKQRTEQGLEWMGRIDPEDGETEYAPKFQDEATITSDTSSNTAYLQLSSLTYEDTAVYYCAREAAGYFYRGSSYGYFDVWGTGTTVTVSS VL: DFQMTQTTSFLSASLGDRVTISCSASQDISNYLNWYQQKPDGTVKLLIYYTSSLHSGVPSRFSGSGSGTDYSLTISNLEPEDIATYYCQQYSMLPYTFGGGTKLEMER
Result: 1.24 OD450

Ask: So what's the measured OD450 for this one? F1.257.3 (antibody, human IgG1, kappa, V domains shown, Human-murine chimeric IgG1, kappa) VH: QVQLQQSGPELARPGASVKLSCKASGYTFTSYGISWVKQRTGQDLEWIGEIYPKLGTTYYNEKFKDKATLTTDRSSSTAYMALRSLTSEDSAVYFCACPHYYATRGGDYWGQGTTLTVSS VL: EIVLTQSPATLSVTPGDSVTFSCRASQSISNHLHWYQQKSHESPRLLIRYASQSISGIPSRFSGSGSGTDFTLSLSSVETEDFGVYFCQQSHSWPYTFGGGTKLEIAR
Result: 0.6 OD450

Ask: So what's the measured OD450 for this one? F1.120.15 (antibody, human IgG1, kappa, V domains shown, Human-murine chimeric IgG1, kappa) VH: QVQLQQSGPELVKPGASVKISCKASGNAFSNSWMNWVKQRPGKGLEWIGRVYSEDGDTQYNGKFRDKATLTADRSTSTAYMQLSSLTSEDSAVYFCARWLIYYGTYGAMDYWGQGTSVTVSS VL: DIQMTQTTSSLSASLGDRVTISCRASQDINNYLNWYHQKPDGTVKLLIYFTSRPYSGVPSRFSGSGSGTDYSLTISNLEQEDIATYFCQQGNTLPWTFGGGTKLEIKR
Result: 1.21 OD450

Ask: So what's the measured OD450 for this one? F2.343.16 (antibody, human IgG1, lambda, V domains shown, Human-murine chimeric IgG1, lambda) VH: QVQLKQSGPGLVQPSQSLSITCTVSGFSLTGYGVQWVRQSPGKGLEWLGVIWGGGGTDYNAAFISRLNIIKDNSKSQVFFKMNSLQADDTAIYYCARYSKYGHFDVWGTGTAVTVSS VL: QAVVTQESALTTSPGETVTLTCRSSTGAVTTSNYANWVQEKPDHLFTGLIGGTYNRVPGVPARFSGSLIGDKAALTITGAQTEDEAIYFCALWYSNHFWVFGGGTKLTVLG
Result: 0.43 OD450

Ask: So what's the measured OD450 for this one? F2.104.10 (antibody, human IgG1, lambda, V domains shown, Human-murine chimeric IgG1, lambda) VH: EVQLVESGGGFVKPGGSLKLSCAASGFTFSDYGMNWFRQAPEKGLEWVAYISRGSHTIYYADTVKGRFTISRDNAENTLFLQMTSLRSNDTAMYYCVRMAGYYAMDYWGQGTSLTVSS VL: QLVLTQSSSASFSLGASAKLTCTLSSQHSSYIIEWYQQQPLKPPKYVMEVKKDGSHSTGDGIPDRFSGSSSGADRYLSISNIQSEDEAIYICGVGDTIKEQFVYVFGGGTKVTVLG
Result: 0.66 OD450

Ask: So what's the measured OD450 for this one? F1.7.6 (antibody, human IgG1, kappa, V domains shown, Human-murine chimeric IgG1, kappa) VH: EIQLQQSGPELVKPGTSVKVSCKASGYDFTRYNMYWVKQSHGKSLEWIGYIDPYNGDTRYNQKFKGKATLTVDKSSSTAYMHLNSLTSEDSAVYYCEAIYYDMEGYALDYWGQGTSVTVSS VL: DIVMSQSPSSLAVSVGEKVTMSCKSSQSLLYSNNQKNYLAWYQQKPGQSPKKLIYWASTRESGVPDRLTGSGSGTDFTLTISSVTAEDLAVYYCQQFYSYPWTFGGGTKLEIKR
Result: 1.19 OD450
